target: bDHFR (Bos taurus)
Sequence (P00376 whole entry): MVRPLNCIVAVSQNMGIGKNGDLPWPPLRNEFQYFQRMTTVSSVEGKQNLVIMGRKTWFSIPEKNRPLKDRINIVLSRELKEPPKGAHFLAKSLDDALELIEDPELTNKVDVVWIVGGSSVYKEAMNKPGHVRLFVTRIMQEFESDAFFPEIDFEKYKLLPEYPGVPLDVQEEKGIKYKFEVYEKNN
readoutLabel: pKi
Remember, pKi is on a log scale: it is -log10 of the molar concentration.

Challenge: Query (compound): CNCCC=C1c2ccccc2CCc2ccccc21 ; field requested: pKi
Response given: 6.08
